System: Mycobacterium tuberculosis
Experiment Notes: Inhibition of Mycobacterium tuberculosis His6-tagged MabA expressed in Escherichia coli BL21 (DE3) assessed as reduction in HBCoA formation at 1 mM using AcAcCoA as substrate preincubated for 10 to 30 mins followed by substrate and NADPH addition and measured after 15 mins by LC-MS/MS analysis relative to control
Experimental Parameters: time 10-45 min
Measurement Kind: inhibition (%)
All answers are understood in %, so give the number only.

Value lookup for inhibition; key = CC(C)(C)OC(=O)Nc1cc2ccccc2cc1C(=O)O
100

Value lookup for inhibition; key = CC(C)(C)OC(=O)Nc1ccc(-c2ccccc2)cc1C(=O)O
100

Value lookup for inhibition; key = COc1ccc(NC(=O)OC(C)(C)C)c(C(=O)O)c1
31

Value lookup for inhibition; key = CC(C)(C)OC(=O)Nc1ccc(Br)cc1C(=O)O
95

Value lookup for inhibition; key = CC(C)(C)OC(=O)Nc1ccc(I)cc1C(=O)O
100

Value lookup for inhibition; key = CC(C)(C)OC(=O)Nc1ccc(Oc2ccccc2)cc1C(=O)O
100

Value lookup for inhibition; key = CC(C)(C)OC(=O)Nc1ccc(Cl)cc1C(=O)O
77

Value lookup for inhibition; key = CC(C)COC(=O)Nc1ccc(I)cc1C(=O)O
100

Value lookup for inhibition; key = CC(C)(C)OC(=O)Nc1ccc(F)cc1C(=O)O
38

Value lookup for inhibition; key = COC(=O)c1cc(I)ccc1NC(=O)OC(C)(C)C
0

Value lookup for inhibition; key = CC(C)(C)OC(=O)Nc1ccccc1C(=O)O
31

Value lookup for inhibition; key = O=C(Nc1ccc(I)cc1C(=O)O)OCc1ccccc1
100

Value lookup for inhibition; key = C=CCOC(=O)Nc1ccc(I)cc1C(=O)O
83

Value lookup for inhibition; key = CN(C(=O)OC(C)(C)C)c1ccc(I)cc1C(=O)O
50

* * *

For each of the molecules below, state its pIC50.
Experiment Notes: Inhibition of Mycobacterium tuberculosis His6-tagged MabA expressed in Escherichia coli BL21 (DE3) assessed as reduction in HBCoA formation using AcAcCoA as substrate preincubated for 30 mins followed by substrate and 100 uM NADPH addition and measured after 15 mins by LC-MS/MS analysis
Lab note: report pIC50 as minus log10 of the concentration in molar units, number only.

Value lookup for pIC50; key = O=C(Nc1ccc(I)cc1C(=O)O)c1ccc(Cl)c(Cl)c1
4.42

Value lookup for pIC50; key = O=C(Nc1ccc(I)cc1C(=O)O)c1ccccc1
3.84

Value lookup for pIC50; key = O=C(Nc1ccc(I)cc1C(=O)O)OCc1ccccc1
4.04

Value lookup for pIC50; key = O=C(Nc1ccc(I)cc1C(=O)O)c1ccc(Cl)cc1Cl
3.90

Value lookup for pIC50; key = CC(C)(C)OC(=O)Nc1ccc(F)cc1C(=O)O
3.33

Value lookup for pIC50; key = O=C(Nc1ccc(I)cc1C(=O)O)c1cccc(Cl)c1
4.15

Value lookup for pIC50; key = CN(C(=O)OC(C)(C)C)c1ccc(I)cc1C(=O)O
3.00

Value lookup for pIC50; key = O=C(Nc1ccc(I)cc1C(=O)O)c1ccc(C(F)(F)F)cc1
4.16

Value lookup for pIC50; key = CC(C)(C)OC(=O)Nc1cc2ccccc2cc1C(=O)O
3.51

* * *

Experiment Notes: Inhibition of Mycobacterium tuberculosis His6-tagged MabA expressed in Escherichia coli BL21 (DE3) assessed as reduction in HBCoA formation using AcAcCoA as substrate preincubated for 30 mins followed by substrate and 100 uM NADPH addition and measured after 15 mins by LC-MS/MS analysis
Measurement Kind: pIC50
Lab note: report pIC50 as minus log10 of the concentration in molar units, number only.

Value lookup for pIC50; key = O=C(Nc1ccc(I)cc1C(=O)O)c1ccc(OC(F)(F)F)cc1
4.08

Value lookup for pIC50; key = O=C(Nc1ccc(I)cc1C(=O)O)c1ccc(Cl)cc1
4.28

Value lookup for pIC50; key = O=C1NC(=S)NC(=O)C1C/C=C/c1ccccc1
4.40

Value lookup for pIC50; key = O=C(O)c1cc2sccc2[nH]1
3.73

Value lookup for pIC50; key = CC(C)(C)OC(=O)Nc1ccc(-c2ccccc2)cc1C(=O)O
3.71

Value lookup for pIC50; key = C/C=C/C=C/C(=O)Nc1c[nH]c(=O)[nH]c1=O
4.19

Value lookup for pIC50; key = O=C(O)c1cc(I)ccc1NC(=O)C1Cc2ccccc2C1
3.85
